# assay.method.text: Thermal stability of cysteine-NEM conjugates by DSC
# Format: physicochemical
# cond: second identical scan
value.kind: Second Scan Tm (°C)
Expressed in °C, but write only the number.

# lookup: Second Scan Tm of S89C: cysteine variant of P54AR4-83v2 (SEQ ID NOS: 213 and 251); NEM and VC-MMAF conjugates (conjugate, NEM or vcMMAF conjugate; EGFR binding FN3 domain, NEM and VC-MMAF conjugates) MLPAPKNLVVSEVTEDSARLSWDDPWAFYESFLIQYQESEKVGEAIVLTVPGSERSYDLTGLKPGTEYTVSIYGVHNVYKDTNMRGLPLCAIFTT
71

// same read-out, input: Q34C: cysteine variant of P54AR4-83v2 (SEQ ID NOS: 197 and 235); NEM and VC-MMAF conjugates (conjugate, NEM or vcMMAF conjugate; EGFR binding FN3 domain, NEM and VC-MMAF conjugates) MLPAPKNLVVSEVTEDSARLSWDDPWAFYESFLICYQESEKVGEAIVLTVPGSERSYDLTGLKPGTEYTVSIYGVHNVYKDTNMRGLPLSAIFTT
74

// same read-out, input: T93C: cysteine variant of P54AR4-83v2 (SEQ ID NOS: 216 and 254); NEM and VC-MMAF conjugates (conjugate, NEM or vcMMAF conjugate; EGFR binding FN3 domain, NEM and VC-MMAF conjugates) MLPAPKNLVVSEVTEDSARLSWDDPWAFYESFLIQYQESEKVGEAIVLTVPGSERSYDLTGLKPGTEYTVSIYGVHNVYKDTNMRGLPLSAIFCT
69

// same read-out, input: I91C: cysteine variant of P54AR4-83v2 (SEQ ID NOS: 215 and 253); NEM and VC-MMAF conjugates (conjugate, NEM or vcMMAF conjugate; EGFR binding FN3 domain, NEM and VC-MMAF conjugates) MLPAPKNLVVSEVTEDSARLSWDDPWAFYESFLIQYQESEKVGEAIVLTVPGSERSYDLTGLKPGTEYTVSIYGVHNVYKDTNMRGLPLSACFTT
69

The reported measurements were obtained from patent US11702475B2.
